Provide the reported Percent Effect of each item.
# Target or test system: Aspartate--tRNA(Asp/Asn) ligase (Mycobacterium tuberculosis (strain ATCC 25618 / H37Rv)) (UniProt P9WFW3); note: in the data most compounds retested in dose-response had high values
# Sequence (P9WFW3 whole entry): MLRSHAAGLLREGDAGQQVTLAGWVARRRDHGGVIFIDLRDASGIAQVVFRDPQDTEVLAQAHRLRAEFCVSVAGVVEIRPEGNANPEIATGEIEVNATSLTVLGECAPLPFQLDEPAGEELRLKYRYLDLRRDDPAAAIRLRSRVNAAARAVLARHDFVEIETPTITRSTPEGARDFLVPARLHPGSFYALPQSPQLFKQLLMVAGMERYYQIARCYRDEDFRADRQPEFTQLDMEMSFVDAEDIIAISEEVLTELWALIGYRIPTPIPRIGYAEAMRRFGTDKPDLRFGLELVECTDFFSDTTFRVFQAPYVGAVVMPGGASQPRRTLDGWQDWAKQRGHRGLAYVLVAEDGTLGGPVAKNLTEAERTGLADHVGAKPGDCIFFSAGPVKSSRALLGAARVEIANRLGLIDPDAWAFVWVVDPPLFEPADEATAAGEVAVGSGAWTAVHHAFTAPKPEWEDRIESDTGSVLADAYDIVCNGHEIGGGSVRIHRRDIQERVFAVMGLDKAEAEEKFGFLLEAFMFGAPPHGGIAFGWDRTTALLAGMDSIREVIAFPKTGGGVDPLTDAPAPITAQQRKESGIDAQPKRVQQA
# Experiment notes: Assay for Asp RNA synthetase-1 from Mycobacterium tuberculosis
# Format: functional
# Set-up: scale not given: direction of the effect not stated beside the values
# Details: 30 µM
Give bare numbers, in %.

Recorded results for 5 molecules are shown here.
1) CN(CCC#N)C(=O)CCOc1cccc(F)c1 = -3.59
2) Cc1ccoc1-c1nnc(CNCC2CCCN2c2cccnn2)o1 (configuration not stated) = -2.62
3) CC(C)c1cc(NC(=O)CN2CCC(N3CCCCC3)CC2)on1 = 0.301
4) CC(C)COC(C)C(=O)NCc1cc(F)cc(F)c1 (configuration not stated) = -4.79
5) Cn1cc(CN2C[C@@H]3COC[C@@H](C(=O)N4CCCCO4)[C@@H]3C2)cn1 = -1.16

Below is a list of molecules. For each, state its recorded Percent Effect.
1. CN(C)C(=O)c1cccc(NC(=O)N(CCO)Cc2ccsc2)c1
2. CS(=O)(=O)NCCC(=O)NC1CCc2nccn2C1 (configuration not stated)
3. O=S(=O)(CCN1CCOC(Cn2cccn2)C1)C(F)(F)F (configuration not stated)

-4.93
3.25
8.08

Need Percent Effect for each of these molecules.
1. Cc1cc(C)n(C2CN(CC(O)c3ccc(F)cc3)C2)n1 (configuration not stated)
2. Cn1cc(CN2CC[C@H]3CO[C@H](CNc4ncccn4)[C@H]3C2)cn1
3. COc1ccccc1CNC(=O)N1CCCC(c2nncn2C)C1 (configuration not stated)

1. 2.19
2. -0.0582
3. -4.33

I am curious: what Percent Effect value has been reported for Cc1nc(CN2CCCC2c2c(C)nn(C)c2Cl)no1 (configuration not stated) ?
-3.26

----------
# Target or test system: Shiga toxin 2 (Escherichia coli O157:H7) (UniProt P09385+P09386)
# Experiment notes: E. coli 0.157:H7 Shiga Toxin SOP - stx2 screening assay
# Assay type: functional
# Parameters: scale not given: direction of the effect not stated beside the values
# Details: 30 µM
Measured metric: Percent Effect (%)
Answers are plain numbers, in %.

1) CCc1nc(CC(=O)N2CCCC2Cn2cccn2)cs1 (stereo unspecified) = 10.2
2) O=C(C1CCCC1)N1CCN(Cc2nc(-c3ccco3)no2)CC1 = -10.1
3) CC(C)Oc1ncnc2c1CCN(C(=O)c1cccn1C)CC2 = -10.4
4) CC(C)c1nc(CC(=O)Nc2nc(CN3CCCCCC3)cs2)cs1 = -37.6
5) CCOC(=O)NC(C(=O)NCc1ccc(N2CCCCC2)nc1)C(C)C (stereo unspecified) = 21.9

With those in mind, consider the next molecule.
Please report the recorded Percent Effect for CCc1nc(C2CCCN2C(=O)CCCn2cccn2)no1 (stereo unspecified) .
-5.5

----------
# Target or test system: Shiga toxin 2 (Escherichia coli O157:H7) (UniProt P09385+P09386)
# Experiment notes: E. coli 0.157:H7 Shiga Toxin SOP - stx2 screening assay
# Format: functional
# Set-up: scale not given: direction of the effect not stated beside the values
# Details: 30 µM
Task for the reader: assign each of the following compounds its reported Percent Effect.
One number for each entry, in %.

1) COc1cccc(NC(=O)N(CCO)Cc2ccsc2)c1 = -14.3

Below is a list of compounds. For each, state its recorded Percent Effect.
1. CC(C)Nc1nc(N2CCOCC2)nc2c1CN(Cc1ccoc1)CC2
2. CC(C)(C)C(=O)Cn1nc(-c2ccccc2F)ccc1=O
3. O=C(NCc1nnc2n1CCCC2)N(Cc1ccccc1F)C1CC1
4. CC(C)c1nnc2n1CCN(Cc1csc(CC(=O)N(C)C)n1)C2
5. CC(O)CN(CC(=O)NC(=O)NCC(F)(F)F)c1ccccc1 (stereo unspecified)

4.99
-9.41
7.01
18.3
29.2

----------
# Target or test system: Shiga toxin 2 (Escherichia coli O157:H7) (UniProt P09385+P09386)
# Experiment notes: E. coli 0.157:H7 Shiga Toxin SOP - stx2 screening assay
# Assay type: functional
# Parameters: scale not given: direction of the effect not stated beside the values
# Details: 30 µM
Measured metric: Percent Effect (%)
Numbers only, in %.

Illustrative cases are given below, each with its answer.
1) COCc1nc(N(C)C)ncc1C(=O)NC(C)C = -16.3
2) Cc1cnn(CC2CCCN2C(=O)c2cc3ccccc3[nH]c2=O)c1 (centres undefined) = 22.9
3) COCCc1noc(CN2CCN(CC(O)c3ccccc3)CC2)n1 (centres undefined) = 4.32

Hi team, please reply with Percent Effect for each item in this list.
1. COc1ccc(C(N)c2cccc(S(C)(=O)=O)c2)cc1 (centres undefined)
2. OC(CN(Cc1ccccc1)Cc1ccncc1)c1cccs1 (centres undefined)
3. O=C(CCCOc1ccccc1Cl)N1CCCC(n2cncn2)C1 (centres undefined)
4. COC(=O)c1ccc(N2CCN(C(=O)c3ccncc3)C(C)C2)cc1 (centres undefined)
5. Cc1csc([C@@H]2C[C@@H]3CCN(C(=O)c4ccnnc4)C[C@H]3O2)n1
6. Cc1cnn(CC2CCCN2CC(=O)N(C)CCC#N)c1 (centres undefined)
7. Cc1cc(N2CCCN(C(=O)Cc3csc(C)n3)CC2)ccn1
8. Cc1nc(CN2CCCN(C(=O)c3ccccn3)CC2)oc1C

[-7.65, 4.51, 19.3, -11.4, -6.67, -11.9, 3.59, 25.9]

Below is a list of molecules. For each, state its recorded Percent Effect.
1. CC(c1nc(C2CC2)no1)N1CCN(CCOCC(F)(F)F)CC1 (centres undefined)
2. CC(=O)Nc1cccc(OCCNC(=O)N(C)Cc2ccco2)c1
3. Cc1nc(CN(Cc2ccccc2)C2CCS(=O)(=O)C2)oc1C (centres undefined)
4. CN(C)C(=O)c1ccc2c(c1)N(C)C(CC(=O)NCCC(C)(C)C)CO2 (centres undefined)

1: -10.3; 2: -16.7; 3: 24.1; 4: 5.86

Quick batch: Percent Effect for everything below.
1. NS(=O)(=O)c1ccc(NC(=O)CSc2ccc3c(c2)CCC3)cc1
2. CS(=O)(=O)N1CCCN(C(=O)c2ccc(Cn3ccccc3=O)o2)CC1
3. O=C(Cc1ccc(-n2cccn2)cc1)N1CCCC(n2cccn2)C1 (centres undefined)
4. Cc1nc(C)c(C(=O)N2CCC(Nc3cccnc3)CC2)s1

1: -78.8; 2: 25; 3: -22.3; 4: -45.8

----------
Answer each item with its documented Percent Effect.
# Target or test system: Shiga toxin 2 (Escherichia coli O157:H7) (UniProt P09385+P09386)
# Experiment notes: E. coli 0.157:H7 Shiga Toxin SOP - stx2 screening assay
# Format: functional
# Parameters: scale not given: direction of the effect not stated beside the values
# Details: 30 µM
Answers are plain numbers, in %.

1. CSCC[C@H](N)C(=O)NCc1cc2n(n1)CCCN(C1CCCCC1)C2 = 5.19
2. COC(=O)CCc1c(C)nc2cc(O)nn2c1C = -37.6
3. c1ccc(-c2nc(CN3CCc4c(ncn4C4CC4)C3)cs2)cc1 = -40.4
4. O=C(c1ccnnc1)N1CCC2(CC1)CC(N1CCOCC1)C2 = -0.921
5. Cn1ccc(C(=O)NC2CCC23CCN(Cc2cccnc2)CC3)c1 (centres undefined) = -5.95
6. O=C(Cc1ccccn1)N1C[C@@H]2CC[C@H](C1)N(Cc1ccccc1)C2=O = -4.09

Batch: Percent Effect for all items listed.
1. Cc1ccc(N2CCCC(NCc3nc(C)c(C)o3)C2)nn1 (centres undefined)
2. CC(=O)c1ccccc1C(=O)NCC1(CO)CC1
3. O=C(Cc1ccsc1)N1CCCC(c2n[nH]c3nccnc23)C1 (centres undefined)
4. O=C(Nc1nnc(C2CC2)s1)NC1CCN(Cc2ccccc2)C1 (centres undefined)

1: -14.9; 2: -19.8; 3: 6.36; 4: -174

Quick one: give me Percent Effect for each item below, same order please.
1. CNS(=O)(=O)c1ccc(C(=O)NCCc2ccccn2)cc1
2. Cc1csc(CN2CC[C@H]3C[C@H](c4nnc(C)[nH]4)O[C@@H]3C2)n1
3. Cn1ncc2c(=O)[nH]c(CN3CCCC3CC3CCCCC3)nc21 (centres undefined)

1: 14.4; 2: 0.515; 3: 22.5

Give one value of Percent Effect per listed compound.
1. CCOCC1CN(C(=O)c2cccn2C)Cc2cnn(CC3CC3)c21 (centres undefined)
2. Cc1nnc2n1CCN(C(=O)c1cn(-c3ccccc3Cl)nn1)C2
3. Cc1occc1C(=O)N1CCc2c(COCC3CC3)cncc2C1
4. O=C(NC1CCS(=O)(=O)C1)N1CCN(c2cnccn2)CC1 (centres undefined)
5. Cc1cnn(CC2CN(Cc3nnc(C4CC4)o3)CCO2)c1 (centres undefined)

1: -5.56; 2: -42.4; 3: -11.9; 4: -8.56; 5: 24.8

For each entry beneath this line, provide reported Percent Effect.
1. O=S(=O)(NCC1(O)CCOc2ccccc21)c1ccc(Br)s1 (centres undefined)
2. Cc1ccc(C2CCCCCN2Cc2cn(C)nc2C)cc1 (centres undefined)
3. COCCC(=O)N1CCN(CCN(C)C)c2ncccc2C1
4. Cc1cnc(N2CCC3(CCN(CC4CC4)C3=O)CC2)nc1
5. CCn1c(C)nnc1CN(C)C1CCN(CCn2cccn2)C1 (centres undefined)
6. Cn1cc(CNC2CCCN(Cc3noc(C4CC4)n3)C2)cn1 (centres undefined)

1: 17.9; 2: -29; 3: -25.6; 4: -8.57; 5: 12.1; 6: 24.8

The measurements presented in this section are drawn from ChEMBL document CHEMBL3988442.
